# Experimental System: Gal-1 (Homo sapiens, UniProt P09382)
# Construct: made in house; host or cells: E. coli BL21(DE3)
# Sequence (P09382 whole entry): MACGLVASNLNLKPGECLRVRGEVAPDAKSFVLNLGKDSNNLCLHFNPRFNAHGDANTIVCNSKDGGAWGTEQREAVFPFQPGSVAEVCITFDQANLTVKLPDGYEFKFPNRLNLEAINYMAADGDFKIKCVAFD
# Assay Summary: Competition pull-down with lactose
# Assay type: binding
# Condition Description: H14 library; lactose 10 mM; read-out: Surface mapping KD (apparent), competition
Quick list: Kd per entry.
Numbers only; they are read as µM.

[[record]]
cpd_smiles = "NCCCC[C@@H](CC(=O)N[C@H]1CCCC[C@@H]1C(=O)N[C@H]1CCCC[C@@H]1C(=O)N[C@@H](CC(N)=O)CC(=O)N[C@H]1CCCC[C@@H]1C(N)=O)NC(=O)[C@H]1CCCC[C@@H]1N"
uom = "µM"
measured_number = 278


-- ask Please provide the recorded Kd for CC(C)C[C@@H](CC(=O)N[C@H]1CCCC[C@@H]1C(N)=O)NC(=O)[C@H]1CCCC[C@@H]1NC(=O)[C@H]1CCCC[C@@H]1NC(=O)C[C@H](CC(C)C)NC(=O)[C@H]1CCCC[C@@H]1N , tested on Gal-1 (Homo sapiens, UniProt P09382).
-- reply 32

-- ask Please provide the recorded Kd for CC[C@H](C)[C@@H](CC(=O)N[C@H]1CCCC[C@@H]1C(N)=O)NC(=O)[C@H]1CCCC[C@@H]1NC(=O)[C@H]1CCCC[C@@H]1NC(=O)C[C@H](CC(N)=O)NC(=O)[C@H]1CCCC[C@@H]1N , tested on Gal-1 (Homo sapiens, UniProt P09382).
-- reply 323
